assay: Cmax in CD-1 mouse at 10 mg/kg, po measured for 24 hrs by UPLC-MS/MS analysis; format: ADME, organism-based; parameters: dose 10 mg/kg, time 24 hrs, route po; details: in vivo
measuredQuantity: Cmax (ng/mL)
State the answer as a number, implicitly in ng/mL.

Could you tell me which Cmax is on file for O=C(c1cc(O)cc(F)c1)c1cc(O)c(O)c([N+](=O)[O-])c1 ? 744

Could you tell me which Cmax is on file for Cc1ccc(C(=O)c2cc(O)c(O)c([N+](=O)[O-])c2)cc1 ? 7620

Could you tell me which Cmax is on file for COc1cc(C(=O)c2cc(O)cc(F)c2)cc([N+](=O)[O-])c1O ? 4180

----------
experiment: Elimination rate constant in CD-1 mouse at 1 mg/kg, iv measured for 24 hrs by UPLC-MS/MS analysis; type: ADME, organism-based; conditions: in vivo
measuredQuantity: k el at 24 h (s⁻¹)
State the answer as a number, implicitly in s⁻¹.

Could you tell me which k el at 24 h is on file for COc1cc(C(=O)c2cc(O)cc(F)c2)cc([N+](=O)[O-])c1O ? 5.58e-05

----------
experiment: AUC (0 to 24 hrs) in CD-1 mouse at 10 mg/kg, po measured for 24 hrs by UPLC-MS/MS analysis; format: ADME, organism-based; parameters: time 24 hrs, dose 10 mg/kg, route po; settings: in vivo
measuredQuantity: AUC(0-t) at 24 h (ng·h/mL)
State the answer as a number, implicitly in ng·h/mL.

Below are worked cases with known answers.
{"columns": ["entrySmiles", "measuredQuantity", "measurement"],
 "data": [
  ["O=C(c1cc(O)cc(F)c1)c1cc(O)c(O)c([N+](=O)[O-])c1", "AUC(0-t) at 24 h", 866],
  ["Cc1ccc(C(=O)c2cc(O)c(O)c([N+](=O)[O-])c2)cc1", "AUC(0-t) at 24 h", 11900]
]}

Could you tell me which AUC(0-t) at 24 h is on file for COc1cc(C(=O)c2cc(O)cc(F)c2)cc([N+](=O)[O-])c1O ? 26900

----------
assay: Clearance in CD-1 mouse at 1 mg/kg, iv measured for 24 hrs by UPLC-MS/MS analysis; type: ADME, organism-based; settings: in vivo
measuredQuantity: clearance (mL/min/kg)
State the answer as a number, implicitly in mL/min/kg.

Could you tell me which clearance is on file for COc1cc(C(=O)c2cc(O)cc(F)c2)cc([N+](=O)[O-])c1O ? 5.25

----------
Reported half-life by item:
assay: Half life in CD-1 mouse at 10 mg/kg, po measured for 24 hrs by UPLC-MS/MS analysis; format: ADME, organism-based; details: in vivo
State the answer as a number, implicitly in h.

Could you tell me which half-life is on file for O=C(c1cc(O)cc(F)c1)c1cc(O)c(O)c([N+](=O)[O-])c1 ? 0.9

Could you tell me which half-life is on file for Cc1ccc(C(=O)c2cc(O)c(O)c([N+](=O)[O-])c2)cc1 ? 1.4

Could you tell me which half-life is on file for COc1cc(C(=O)c2cc(O)cc(F)c2)cc([N+](=O)[O-])c1O ? 10.1

----------
Reported half-life by item:
assay: Half life in CD-1 mouse at 1 mg/kg, iv measured for 24 hrs by UPLC-MS/MS analysis; format: ADME, organism-based; conditions: in vivo
State the answer as a number, implicitly in h.

{"columns": ["entrySmiles", "measuredQuantity", "measurement"],
 "data": [
  ["O=C(c1cc(O)cc(F)c1)c1cc(O)c(O)c([N+](=O)[O-])c1", "half-life", 1.5]
]}

// next item, half-life requested
Could you tell me which half-life is on file for COc1cc(C(=O)c2cc(O)cc(F)c2)cc([N+](=O)[O-])c1O ? 3.5
